experiment: antimalarial activity against Dd2 strain (AID 2302);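 note: 0% = DMSO untreated growth and 100% = chloroquine plus artemisinin killed control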; conditions: P. falciparum Dd2 in RBCs, LDH growth readout, 72 h; at 2 µM; stronger effect = higher value
Activity calls are given as the source filed them.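 Rule for the calls: active = growth inhibition above 50% at the single 2 µM test dose, taken to imply half-maximal potency below 2 µM; inactive = the rest.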
# growth inhibition annotations
property-measured: growth inhibition

>>> result("CNC(=O)c1ccccc1Nc1nc(Nc2ccc(N3CCN(C)CC3)nc2)ncc1C")
"50% (active)"
>>> result("CC1CCNc2ccc(Cc3cnc(N)nc3N)cc21 (centres undefined)")
"0% (inactive)"
>>> result("CCc1cn2c3c(cc(C(=O)N[C@@H](Cc4ccccc4)[C@H](O)CNC(C)(C)CCCC(C)C)cc13)N(C)S(=O)(=O)C2")
"98% (active)"
>>> result("Cc1ccc(O)cc1Nc1ccnc2cc(-c3ccncc3)ccc12")
"84% (active)"
>>> result("NC(=O)c1ccccc1Nc1nc(Nc2ccn[nH]2)ncc1Cl")
"93% (active)"
>>> result("Fc1cccc(C=NNc2ccnc3ccccc23)c1")
"72% (active)"
>>> result("CC(C)(CNCc1ccccc1)c1nc(-c2ccc(Cl)c(O)c2)c(-c2ccncc2)[nH]1")
"99% (active)"
>>> result("Oc1cc2ccccc2cc1CNC1CCCCC1")
"89% (active)"
>>> result("Cc1ccc(S(=O)(=O)n2nccc2-c2c(-c3ccc(Cl)cc3)noc2C)cc1")
"97% (active)"
>>> result("CC(C)Cn1cc2c(ccc3nc(N)nc(N)c32)n1")
"2% (inactive)"
>>> result("CCN1CCN(c2ccc(Nc3c4ccccc4nc4ccccc34)cc2)CC1")
"100% (active)"
>>> result("O=C(Nc1cccc(-c2ccc(CN3CCCC3)cc2)c1)c1ccc(F)cc1")
"9% (inactive)"
>>> result("Cc1nc2nc(N)nc(N)c2c(C)c1Cc1ccc(N)cc1")
"-2% (inactive)"
>>> result("Cc1ccc2nc(C)cc(NN=Cc3cccc([N+](=O)[O-])c3)c2c1")
"99% (active)"
>>> result("O=S(=O)(c1c(Cl)cc(Cl)cc1Cl)N1CCCCC(c2ccc(F)c(F)c2)=N1")
"65% (active)"
>>> result("COc1cccc(-c2cc(C(F)(F)F)n3ncc(C(=O)Nc4cc(C)ccc4O)c3n2)c1")
"99% (active)"
>>> result("CCOc1ccc2ccccc2c1C(=O)Nc1cc(C)nn1-c1nc(C)cc(=O)[nH]1")
"86% (active)"
>>> result("CN(c1ccc(NC(=O)Nc2cc(C(F)(F)F)ccc2F)cc1)c1ccnc(NCCN2CCOCC2)n1")
"73% (active)"
>>> result("CCOC(=O)c1ccc(N2CCCCC2)c(NC(=O)C(Cl)(Cl)Cl)c1")
"97% (active)"
>>> result("Fc1ccc2[nH]cc(CCNCc3ccc(-c4cccc(-c5nc6ccccc6[nH]5)c4)cc3)c2c1")
"99% (active)"
>>> result("CCOC(=O)c1cccc(NC(=O)Nc2cccc(-c3ncc(OCCCN)c4c3nc(-c3nonc3N)n4CC)c2)c1")
"98% (active)"
>>> result("CCC(CC)CN1C(=O)C(C)(c2ccccc2)N=C1N (centres undefined)")
"11% (inactive)"
>>> result("CCN(CC)CCOc1ccc(Nc2ncc3cc(-c4c(Cl)cccc4Cl)c(=O)n(C)c3n2)cc1")
"91% (active)"
>>> result("NCCNS(=O)(=O)c1ccc(-c2ccnc3[nH]c(-c4ccncc4)cc23)cc1")
"95% (active)"
>>> result("CS(=O)(=O)CCNCc1cccc(-c2ccc3c(Nc4cc(O)c(Cl)cc4F)ccnc3c2)c1")
"100% (active)"
>>> result("CN1CCC(NCc2ccc(-c3ccc(S(=O)(=O)NCc4ccccc4)c(F)c3)cc2)CC1")
"89% (active)"
>>> result("CC(C)(NCc1ncc[nH]1)c1nc(-c2ccc(Cl)c(O)c2)c(-c2ccncc2)[nH]1")
"97% (active)"
>>> result("CN(C)Cc1cccc(-c2cc3c(-c4cnn(C)c4)c(Cl)cnc3[nH]2)c1")
"21% (inactive)"
>>> result("O=C(NCCCN1CCOCC1)c1cccc(Nc2nccc(Nc3ccc(Oc4ccccc4)cc3)n2)c1")
"22% (inactive)"
